Listing: solubility kinetic of selected molecules
# method description: Kinetic solubility of compound at pH 7.4 by nephelometry
# Type: physicochemical
# test settings: buffer
property label: solubility kinetic (µM)

> print(dat)
                                   molecule  unit.text  bound.sign  reported.result
1  CC(c1ccc2cc(CCn3ncc4c3nc(N)n3nc(-c5ccco5)nc43)ccc2n1)N1CCOCC1 (stereo not given)         µM           =              100
2  Nc1nc2c(cnn2CCc2ccc(-c3cnccn3)cc2)c2nc(-c3ccco3)nn12         µM           <                4
3  Nc1nc2c(cnn2CCc2ccc3nc(C(=O)N4CCOCC4)ccc3c2)c2nc(-c3ccco3)nn12         µM           =              100
4  Nc1nc2c(cnn2CCc2ccc(-c3cccnc3)cc2)c2nc(-c3ccco3)nn12         µM           <                4
5  CCc1ccc2cc(CCn3ncc4c3nc(N)n3nc(-c5ccco5)nc43)ccc2n1         µM           <              2.5
